Entry source: the supplement of paper PMC13380429

tested on: Vero E6; assay: cell viability relative to DMSO; higher = less toxic; details: 72 h; 1000 nM
outcome.measure: cell viability (%)
Give just the numeric value; % need not be written.

Answered examples (5):
compound="CN1C(C)(C)CCCC1(C)C [pempidine]" study_target="Vero E6" outcome_measure="cell viability" number=95.7
compound="C[C@H](Nc1cc(NS(=O)(=O)N2CCC2)nc(SCc2cccc(F)c2F)n1)[C@@H](O)CO [SRT3190]" study_target="Vero E6" outcome_measure="cell viability" number=98.5
compound="Fc1ccc(-c2cncc(CN3CCN(c4cccc5c4OCCO5)CC3)c2)cc1 [adoprazine]" study_target="Vero E6" outcome_measure="cell viability" number=98.8
compound=N#C[C@@H]1C[C@@H]2C[C@@H]2N1C(=O)[C@@H](N)C12CC3CC(CC(O)(C3)C1)C2 study_target="Vero E6" outcome_measure="cell viability" number=97.9
compound="CC(C)C[C@H](CN)CC(=O)O [PREGABALIN]" study_target="Vero E6" outcome_measure="cell viability" number=103

Measured cell viability of C[C@@H]1c2ccccc2CN1CC1=NCCN1 (racemic) : 92.9

====

system: U2OS; assay: cell viability relative to DMSO; higher = less toxic; conditions: 72 h; 100 nM
outcome.measure: cell viability (%)
The answer is to be given in %; state only the numeric part.

Please review the following examples before continuing.
molecule=COc1cc2ncnc(Nc3cccc(Cl)c3)c2cc1OC number=96.2
molecule=N=C(N)NCc1cccc(I)c1 number=99.1
molecule="CCN[C@H]1C[C@H](C)S(=O)(=O)c2sc(S(N)(=O)=O)cc21 [dorzolamide]" number=93.6
molecule=O=C(O)[C@H]1CN(CCCP(=O)(O)O)CCN1 number=101

Kindly consider the entry below.
molecule NC1(c2ccc(-c3nc4ccn5c(=O)[nH]nc5c4cc3-c3ccccc3)cc2)CCC1 , cell viability observed: 96.9

====

test system: A549-ACE2 infected with SARS-CoV-2; test: SARS-CoV-2 infection rate relative to DMSO; higher = more infection; settings: 0.1 µM; 24 h
outcome.measure: SARS-CoV-2 infection rate (%)
Number in %, nothing else.

Answered cases to consult:
compound=OC1=c2ccccc2=C(NC2CCCCC2)/C1=C\c1ccccc1 study_target="A549-ACE2 infected with SARS-CoV-2" outcome_measure="SARS-CoV-2 infection rate" number=96
compound="C[C@H](Oc1cc(-c2cnn(C3CCNCC3)c2)cnc1N)c1c(Cl)ccc(F)c1Cl [crizotinib-(S)]" study_target="A549-ACE2 infected with SARS-CoV-2" outcome_measure="SARS-CoV-2 infection rate" number=96
compound=NC1(c2ccc(-c3nc4ccn5c(=O)[nH]nc5c4cc3-c3ccccc3)cc2)CCC1 study_target="A549-ACE2 infected with SARS-CoV-2" outcome_measure="SARS-CoV-2 infection rate" number=105

Input NC1(Cc2ccc(Cl)cc2)CCN(c2ncnc3[nH]ccc23)CC1 . Output SARS-CoV-2 infection rate: 99

====

Listing of entries alongside the reported drug-induced phospholipidosis.
test system: A549-ACE2; test: drug-induced phospholipidosis relative to tamoxifen; higher = more phospholipidosis; settings: 0.833333 µM; 48 h
Express your answer in %, writing the number without its unit.

Example entries begin here.
chemical_smiles=CCN(CC)CCO[C@H]1CC[C@@]2(C)C(=CC[C@@H]3[C@@H]2CC[C@]2(C)C(=O)CC[C@@H]32)C1 readout_unit=% number=19.8
chemical_smiles=CC(C)(C)c1ccc(C(=O)CCCN2CCC(OC(c3ccccc3)c3ccccc3)CC2)cc1 readout_unit=% number=4.12
chemical_smiles=CCCCc1oc2ccc(NS(C)(=O)=O)cc2c1C(=O)c1ccc(OCCCN(CCCC)CCCC)cc1 readout_unit=% number=19

The measured drug-induced phospholipidosis associated with CN(C(=O)Cc1ccc(Cl)c(Cl)c1)[C@H](CN1CCCC1)c1ccccc1 reads 3.22
